# TARGET: SMARCA2-HiBiT (Homo sapiens)
# Construct: SMARCA2-HiBiT knock-in Hela monoclonal cell (CS302366); host or cells: HeLa monoclonal knock-in line (CRISPR HiBiT knock-in at the endogenous locus, heterozygous)
# Sequence (P51531 whole entry): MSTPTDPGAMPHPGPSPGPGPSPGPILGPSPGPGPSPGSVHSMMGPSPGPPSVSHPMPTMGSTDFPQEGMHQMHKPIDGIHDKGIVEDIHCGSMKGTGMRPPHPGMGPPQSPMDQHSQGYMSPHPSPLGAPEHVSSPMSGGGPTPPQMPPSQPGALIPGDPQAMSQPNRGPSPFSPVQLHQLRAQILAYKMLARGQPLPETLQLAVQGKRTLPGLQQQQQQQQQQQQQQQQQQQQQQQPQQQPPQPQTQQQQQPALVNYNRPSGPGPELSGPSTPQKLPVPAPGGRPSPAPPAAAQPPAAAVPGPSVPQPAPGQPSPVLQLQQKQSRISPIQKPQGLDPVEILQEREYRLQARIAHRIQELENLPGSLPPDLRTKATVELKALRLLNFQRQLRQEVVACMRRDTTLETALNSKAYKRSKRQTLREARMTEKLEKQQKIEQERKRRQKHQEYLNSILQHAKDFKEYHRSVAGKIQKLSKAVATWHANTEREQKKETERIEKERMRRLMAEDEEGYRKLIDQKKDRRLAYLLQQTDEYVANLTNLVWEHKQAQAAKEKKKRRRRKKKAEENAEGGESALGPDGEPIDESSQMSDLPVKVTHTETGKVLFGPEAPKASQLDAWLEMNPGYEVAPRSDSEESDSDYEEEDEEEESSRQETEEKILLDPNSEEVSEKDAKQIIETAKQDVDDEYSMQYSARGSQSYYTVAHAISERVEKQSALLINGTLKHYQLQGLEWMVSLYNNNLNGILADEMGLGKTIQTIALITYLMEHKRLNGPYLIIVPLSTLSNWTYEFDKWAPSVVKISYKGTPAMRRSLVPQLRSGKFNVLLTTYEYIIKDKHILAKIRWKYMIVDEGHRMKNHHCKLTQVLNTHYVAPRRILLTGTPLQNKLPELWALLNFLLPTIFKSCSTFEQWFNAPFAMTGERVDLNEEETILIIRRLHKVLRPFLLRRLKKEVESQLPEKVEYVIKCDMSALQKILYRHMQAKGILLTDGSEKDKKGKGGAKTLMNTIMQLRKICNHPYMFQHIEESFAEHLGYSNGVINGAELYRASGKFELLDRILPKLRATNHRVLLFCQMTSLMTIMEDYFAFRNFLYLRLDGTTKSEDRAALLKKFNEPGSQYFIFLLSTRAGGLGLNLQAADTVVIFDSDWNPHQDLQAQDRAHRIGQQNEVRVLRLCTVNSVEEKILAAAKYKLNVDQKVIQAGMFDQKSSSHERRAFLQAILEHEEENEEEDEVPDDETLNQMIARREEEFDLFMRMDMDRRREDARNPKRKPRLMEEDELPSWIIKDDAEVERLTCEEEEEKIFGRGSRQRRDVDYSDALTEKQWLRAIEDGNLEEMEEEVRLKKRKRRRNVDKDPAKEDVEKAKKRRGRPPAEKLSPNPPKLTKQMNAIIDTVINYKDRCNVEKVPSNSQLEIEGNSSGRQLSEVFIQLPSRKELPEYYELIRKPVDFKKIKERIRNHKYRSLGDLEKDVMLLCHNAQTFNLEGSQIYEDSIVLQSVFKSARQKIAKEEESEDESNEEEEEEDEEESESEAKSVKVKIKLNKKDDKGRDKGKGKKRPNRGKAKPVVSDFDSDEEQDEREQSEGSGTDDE
# ASSAY: SMARCA2 HiBiT degradation assay in HeLa cells
# Assay type: cell-based
# TEST CONTEXT: HeLa, 18 hours incubation, read-out: HeLa-HiBit-SM2 Dmax (%)
ASSAY READOUT: Dmax

Please review the following examples before continuing.
MOLECULE | TARGET | RESULT
O=C1CCC(N2Cc3ccc(N4CCN(CCN5CCC(CN6CCN7c8cc(-c9ccccc9O)nnc8NC[C@H]7C6)CC5)CC4)cc3C2=O)C(=O)N1 (some centres unmarked) [Example 119] | SMARCA2-HiBiT (Homo sapiens) | > 85%
CN(CCCCN1CCC(CN2CCN3c4cc(-c5ccccc5O)nnc4NC[C@H]3C2)CC1)c1ccc2c(c1)C(=O)N(C1CCC(=O)NC1=O)C2=O (some centres unmarked) [Example 227] | SMARCA2-HiBiT (Homo sapiens) | 50 to 75%
O=C1CCC(N2Cc3ccc(C4CCN(CC5CCN(C(=O)N6CCN7c8cc(-c9ccccc9O)nnc8NC[C@H]7C6)CC5)CC4)cc3C2=O)C(=O)N1 (some centres unmarked) [Example 143] | SMARCA2-HiBiT (Homo sapiens) | > 85%
O=C1CCC(N2C(=O)c3ccc(Oc4ccc(N5CCC(N6CCN7c8cc(-c9ccccc9O)nnc8NC[C@H]7C6)CC5)cc4)cc3C2=O)C(=O)N1 (some centres unmarked) [Example 241] | SMARCA2-HiBiT (Homo sapiens) | 50 to 75%
O=C1CCC(N2Cc3ccc(N4CCOC(CN5CCC(C(=O)N6CCN7c8cc(-c9ccccc9O)nnc8NC[C@H]7C6)CC5)C4)cc3C2=O)C(=O)N1 (some centres unmarked) [Example 113] | SMARCA2-HiBiT (Homo sapiens) | ≤ 50%

Query: What value of Dmax has been recorded for this entry: O=C1CCC(N2C(=O)c3ccc(N4CCC(CN5CCC6C(C5)C6CN5CCN6c7cc(-c8ccccc8O)nnc7NC[C@H]6C5)CC4)cc3C2=O)C(=O)N1 (some centres unmarked) [Example 46]
Result: > 85%

Query: # input molecule: O=C1CCC(N2C(=O)c3ccc(N4CCC(CN5C[C@@H]6[C@H](C5)[C@H]6CN5CCN6c7cc(-c8ccccc8O)nnc7NC[C@H]6C5)[C@@H](F)C4)cc3C2=O)C(=O)N1 (stereo in doubt) [Example 192] ; wanted: its Dmax
Result: 50 to 75%

---

# TARGET: SMARCA4-HiBiT (Homo sapiens, UniProt P51532)
# Construct: SMARCA4-HiBiT knock-in Hela monoclonal cell (CS3023226); host or cells: HeLa monoclonal knock-in line (CRISPR HiBiT knock-in at the endogenous locus, heterozygous)
# Sequence (P51532 whole entry): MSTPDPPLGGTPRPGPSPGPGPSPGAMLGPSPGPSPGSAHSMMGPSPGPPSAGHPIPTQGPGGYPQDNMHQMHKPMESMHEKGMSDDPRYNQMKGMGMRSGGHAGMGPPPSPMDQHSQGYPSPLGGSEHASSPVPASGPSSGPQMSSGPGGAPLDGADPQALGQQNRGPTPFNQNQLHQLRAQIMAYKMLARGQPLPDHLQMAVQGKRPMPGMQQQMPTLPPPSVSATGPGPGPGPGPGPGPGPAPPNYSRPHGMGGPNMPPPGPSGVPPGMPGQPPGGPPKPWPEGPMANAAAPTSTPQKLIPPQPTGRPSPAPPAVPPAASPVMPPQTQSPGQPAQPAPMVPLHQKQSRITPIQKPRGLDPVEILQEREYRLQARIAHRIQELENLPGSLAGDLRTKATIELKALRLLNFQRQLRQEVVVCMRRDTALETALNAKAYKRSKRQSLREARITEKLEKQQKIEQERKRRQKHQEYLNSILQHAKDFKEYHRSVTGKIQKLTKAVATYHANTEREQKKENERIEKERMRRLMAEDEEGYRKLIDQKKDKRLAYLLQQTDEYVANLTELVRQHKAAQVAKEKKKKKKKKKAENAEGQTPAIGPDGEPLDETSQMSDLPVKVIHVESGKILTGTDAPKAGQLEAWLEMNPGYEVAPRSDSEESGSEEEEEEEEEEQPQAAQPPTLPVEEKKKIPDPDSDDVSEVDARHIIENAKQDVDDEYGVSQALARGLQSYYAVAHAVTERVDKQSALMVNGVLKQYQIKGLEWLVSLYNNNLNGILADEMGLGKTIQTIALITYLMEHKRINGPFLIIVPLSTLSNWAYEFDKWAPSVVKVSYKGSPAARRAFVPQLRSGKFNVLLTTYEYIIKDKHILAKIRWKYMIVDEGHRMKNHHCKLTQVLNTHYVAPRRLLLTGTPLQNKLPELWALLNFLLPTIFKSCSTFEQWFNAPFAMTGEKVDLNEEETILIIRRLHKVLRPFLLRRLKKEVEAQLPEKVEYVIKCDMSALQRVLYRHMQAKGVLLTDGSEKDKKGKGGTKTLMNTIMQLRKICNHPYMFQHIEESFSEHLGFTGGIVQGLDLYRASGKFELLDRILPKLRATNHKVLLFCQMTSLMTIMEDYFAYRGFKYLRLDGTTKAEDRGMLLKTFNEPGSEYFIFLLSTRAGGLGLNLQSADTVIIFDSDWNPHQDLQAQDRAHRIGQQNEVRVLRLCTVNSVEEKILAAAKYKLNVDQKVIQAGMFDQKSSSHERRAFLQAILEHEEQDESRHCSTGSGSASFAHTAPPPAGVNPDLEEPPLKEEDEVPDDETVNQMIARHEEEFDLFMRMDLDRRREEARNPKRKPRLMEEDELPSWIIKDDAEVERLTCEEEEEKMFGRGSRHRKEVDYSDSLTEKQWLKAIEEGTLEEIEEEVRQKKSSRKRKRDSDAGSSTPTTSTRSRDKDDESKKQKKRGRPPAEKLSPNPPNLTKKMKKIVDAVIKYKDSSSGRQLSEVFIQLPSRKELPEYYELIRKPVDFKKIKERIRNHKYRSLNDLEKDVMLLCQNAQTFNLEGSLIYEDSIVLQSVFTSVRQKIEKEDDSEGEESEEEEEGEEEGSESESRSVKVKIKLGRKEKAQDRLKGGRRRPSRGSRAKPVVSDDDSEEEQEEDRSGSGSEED
# ASSAY: SMARCA4 HiBiT degradation assay in HeLa cells
# Type: cell-based
# TEST CONTEXT: HeLa, 18 hours incubation, read-out: HeLa-HiBit-SM4 Dmax (%)
# Protocol: HiBiT peptide knock-in of SMARCA2 in LgBiT expressing HEK293T cells was performed by CRISPR-mediated tagging system as described Promega. The homozygous HiBiT knock-in on c-terminus SMARCA2 was confirmed by sanger sequence. SMARCA2-HiBiT knock-in Hela monoclonal cell (CS302366) and SMARCA4-HiBiT knock-in Hela monoclonal cell (CS3023226) were purchased from Promega. The heterozygous HiBiT-knock-in was confirmed by sanger sequence in both SMARCA2-HiBiT and SMARCA4-HiBiT monoclonal cells. […]
Listing of entries alongside the reported Dmax.

See these solved cases before continuing.
COMPOUND | Dmax
CC1CC(CN2CCN3c4cc(-c5ccccc5O)nnc4NC[C@H]3C2)CCN1CC1CCN(c2cc3c(cc2F)C(=O)N(C2CCC(=O)NC2=O)C3=O)CC1 (stereo partly drawn) [Example 166] | > 85%
C[C@@H]1CN(CC2CCN(c3ccc4c(c3)C(=O)N(C3CCC(=O)NC3=O)C4)CC2)CCN1C(=O)N1CCN2c3cc(-c4ccccc4O)nnc3NC[C@H]2C1 (stereo partly drawn) [Example 114] | 75 to 85%
O=C1CCC(N2C(=O)c3ccc(N4CC(CN5CCC(C(=O)N6CCN7c8cc(-c9ccccc9O)nnc8NC[C@H]7C6)CC5)C4)cc3C2=O)C(=O)N1 (stereo partly drawn) [Example 86] | 50 to 75%

Query: Tell me the measured Dmax of O=C1CCC(N2C(=O)c3ccc(N4CCC(CN5CCC6C(C5)C6CN5CCN6c7cc(-c8ccccc8O)nnc7NC[C@H]6C5)CC4)cc3C2=O)C(=O)N1 (stereo partly drawn) [Example 46] , please.
Result: > 85%

Query: Which measured Dmax value corresponds to C[C@@H]1C[C@H](CN2CCC(CN3CCN4c5cc(-c6ccccc6O)nnc5NC[C@H]4C3)CC2)CCN1c1cc2c(cc1F)C(=O)N(C1CCC(=O)NC1=O)C2=O (stereo partly drawn) [Example 174] ?
Result: > 85%

Query: Dmax for O=C1CCC(N2Cc3cc(OCCN4CCC(N5CCN6c7cc(-c8ccccc8O)nnc7NC[C@H]6C5)C4)ccc3C2=O)C(=O)N1 (stereo partly drawn) [Example 256] ?
Result: 50 to 75%

---

# TARGET: SMARCA4-HiBiT (Homo sapiens, UniProt P51532)
# Construct: SMARCA4-HiBiT knock-in Hela monoclonal cell (CS3023226); host or cells: HeLa monoclonal knock-in line (CRISPR HiBiT knock-in at the endogenous locus, heterozygous)
# ASSAY: SMARCA4 HiBiT degradation assay in HeLa cells
# Assay type: cell-based
# TEST CONTEXT: 18 hours incubation
ASSAY READOUT: HeLa-HiBit-SM4 Dmax (%)

Observe how each entry below is paired with its result.
MOLECULE | ASSAY READOUT | RESULT
CC1CN(c2ccc3c(c2)C(=O)N(C2CCC(=O)NC2=O)C3=O)CCC1CN1C[C@@H]2[C@H](C1)[C@H]2CN1CCN2c3cc(-c4ccccc4O)nnc3NC[C@H]2C1 (some centres unmarked) [Example 197] | HeLa-HiBit-SM4 Dmax (%) | B (B=75%<Dmax<=85%)
O=C1CCC(N2C(=O)c3ccc(N4CC[C@H](CN5CCC(C(=O)N6CCN7c8cc(-c9cc(F)ccc9O)nnc8NC[C@H]7C6)CC5)[C@@H](F)C4)cc3C2=O)C(=O)N1 (some centres unmarked) [Example 279] | HeLa-HiBit-SM4 Dmax (%) | C (C=50%<Dmax<=75%)
O=C1CCC(N2C(=O)c3ccc(N4CC[C@@H](CN5C[C@@H]6[C@H](C5)[C@H]6CN5CCN6c7cc(-c8ccccc8O)nnc7NC[C@H]6C5)[C@H](F)C4)cc3C2=O)C(=O)N1 (some centres unmarked) [Example 200] | HeLa-HiBit-SM4 Dmax (%) | C (C=50%<Dmax<=75%)
O=C1CCC(N2C(=O)c3ccc(N4CC[C@H](CN5C[C@@H]6[C@H](C5)[C@H]6CN5CCN6c7cc(-c8ccccc8O)nnc7NC[C@H]6C5)[C@@H](F)C4)cc3C2=O)C(=O)N1 (some centres unmarked) [Example 193] | HeLa-HiBit-SM4 Dmax (%) | C (C=50%<Dmax<=75%)

Let us move to another entry and its HeLa-HiBit-SM4 Dmax (%).
Query: Look up HeLa-HiBit-SM4 Dmax (%) for this molecule: O=C1CCC(N2C(=O)c3ccc(N4CC[C@H](CN5C[C@@H]6[C@H](C5)[C@H]6CN5CCN6c7cc(-c8ccccc8O)nnc7NC[C@H]6C5)[C@@H](F)C4)cc3C2=O)C(=O)N1 (some centres unmarked) [Example 194]
Result: B (B=75%<Dmax<=85%)

---

# TARGET: SMARCA4-HiBiT (Homo sapiens, UniProt P51532)
# Construct: SMARCA4-HiBiT knock-in Hela monoclonal cell (CS3023226); host or cells: HeLa monoclonal knock-in line (CRISPR HiBiT knock-in at the endogenous locus, heterozygous)
# ASSAY: SMARCA4 HiBiT degradation assay in HeLa cells
# Format: cell-based
# TEST CONTEXT: 18 hours incubation, read-out: HeLa-HiBit-SM4 DC50
ASSAY READOUT: DC50

Example results:
COMPOUND | DC50
CC1(CN2C[C@@H]3[C@@H](CN4CCN5c6cc(-c7ccccc7O)nnc6NC[C@H]5C4)[C@@H]3C2)CCN(c2ccc3c(c2)C(=O)N(C2CCC(=O)NC2=O)C3=O)CC1 (some centres unmarked) [Example 91] | 10 to 100 nM
O=C1CCC(N2C(=O)c3ccc(N4CCC(CN5CCC(CN6CCN7c8cc(-c9ccccc9O)nnc8NC[C@H]7C6)C5)CC4)cc3C2=O)C(=O)N1 (some centres unmarked) [Example 33] | < 10 nM

Query: Request - read-out DC50 | tested on SMARCA4-HiBiT (Homo sapiens, UniProt P51532) | compound O=C1CCC(N2C(=O)c3ccc(N4CCC(CN5CC6CC5CC6CN5CCN6c7cc(-c8ccccc8O)nnc7NC[C@H]6C5)CC4)cc3C2=O)C(=O)N1 (some centres unmarked) [Example 136]
Result: < 10 nM

Query: SMARCA4-HiBiT (Homo sapiens, UniProt P51532) / DC50 / C[C@H]1CN2c3cc(-c4ccccc4O)nnc3NC[C@H]2CN1C[C@H]1[C@@H]2CN(CC3CCN(c4ccc5c(c4)C(=O)N(C4CCC(=O)NC4=O)C5=O)CC3)C[C@@H]21 (some centres unmarked) [Example 44] : value?
Result: < 10 nM

Query: # query: DC50 | item O=C1CCC(N2C(=O)c3cc(F)c(N4CCC(CN5CC6CCC(C5)C6CN5CCN6c7cc(-c8ccccc8O)nnc7NC[C@H]6C5)CC4)cc3C2=O)C(=O)N1 (some centres unmarked) [Example 169] | system: SMARCA4-HiBiT (Homo sapiens, UniProt P51532)
Result: 10 to 100 nM
